# Read-out: Human Leukocyte Antigen - DR isotype (HLADR), HLA-DRA (gene 3122)
# assay summary: BSK_3C_HLADR: BioMAP Diversity Plus: 3C Assay for Human Leukocyte Antigen - DR isotype (HLADR) Biomarker Activity (AID 2283019)
# measurement conditions: primary human endothelial cells (HUVEC); actives raise or lower the signal
Activity calls are given as the source filed them. How the source made its calls: active means hit-call score of the fitted dose curve at least 0.9, where 1 is the maximum; inactive means score below 0.9.
Outcomes: active, inactive

[[record]]
structure_as_smiles = "CCN(CC)c1ccc2c(C)cc(=O)oc2c1"
discrete_label = "active"

[[record]]
structure_as_smiles = "C=C(C)C(=O)OCC(F)(F)C(F)(F)C(F)(F)C(F)(F)C(F)(F)C(F)(F)C(F)(F)F"
discrete_label = "inactive"

[[record]]
structure_as_smiles = "CCCCCCCCCCCCCCCC[N+](C)(C)Cc1ccccc1"
discrete_label = "active"

[[record]]
structure_as_smiles = "FC(F)(F)C(F)(F)C(F)(F)C(F)(F)C(F)(F)C(F)(F)CCS"
discrete_label = "inactive"

[[record]]
structure_as_smiles = "O=C(CC(=O)C(F)(F)C(F)(F)F)C(F)(F)F"
discrete_label = "inactive"

[[record]]
structure_as_smiles = "FC(F)(F)C(F)(F)C(F)(F)C(F)(F)C(F)(F)C(F)(F)C(F)(F)I"
discrete_label = "inactive"

[[record]]
structure_as_smiles = "CCO[Si](CCC(F)(F)C(F)(F)C(F)(F)C(F)(F)C(F)(F)C(F)(F)F)(OCC)OCC"
discrete_label = "inactive"

[[record]]
structure_as_smiles = "C=CC(F)(F)C(F)(F)C(F)(F)C(F)(F)C(F)(F)C(F)(F)C(F)(F)C(F)(F)C=C"
discrete_label = "inactive"

[[record]]
structure_as_smiles = "FC(F)(F)C(F)(F)C(F)(F)C(F)(F)CCI"
discrete_label = "inactive"

[[record]]
structure_as_smiles = "CCCCOCCOCCOC(=O)CCCCC(=O)OCCOCCOCCCC"
discrete_label = "inactive"

[[record]]
structure_as_smiles = "OCC(F)(F)C(F)(F)C(F)(F)C(F)(F)C(F)(F)C(F)F"
discrete_label = "inactive"


----------
# Read-out: Interferon-gamma inducible Protein 10 (IP10), CXCL10 (gene 3627)
# assay summary: BSK_KF3CT_IP10: BioMAP Diversity Plus: KF3CT Assay for Interferon-gamma inducible Protein 10 (IP10) Biomarker Activity (AID 2283068)
# measurement conditions: primary human keratinocytes with fibroblasts; actives raise or lower the signal
The source made the active and inactive calls. Rule for the calls: active = hit-call score of the fitted dose curve at least 0.9, where 1 is the maximum; inactive = score below 0.9.
Classes used: active, inactive

[[record]]
structure_as_smiles = "CC(=O)Nc1ccc(N=Nc2cc(C)ccc2O)cc1"
discrete_label = "active"

[[record]]
structure_as_smiles = "O=P(O)(O)OCCC(F)(F)C(F)(F)C(F)(F)C(F)(F)C(F)(F)C(F)(F)F"
discrete_label = "inactive"

[[record]]
structure_as_smiles = "CCCCCCCCC(F)(F)C(F)(F)C(F)(F)C(F)(F)C(F)(F)C(F)(F)F"
discrete_label = "inactive"

[[record]]
structure_as_smiles = "C#C[C@]1(O)CC[C@H]2[C@@H]3CCc4cc(OC)ccc4[C@H]3CC[C@@]21C"
discrete_label = "inactive"

[[record]]
structure_as_smiles = "CC(C)(C)C(=O)CC(=O)C(F)(F)C(F)(F)C(F)(F)F"
discrete_label = "inactive"


----------
# Read-out: Vascular cell adhesion molecule 1 (VCAM1), VCAM1 (gene 7412)
# assay summary: BSK_MyoF_VCAM1: BioMAP Diversity Plus: MyoF Assay for Vascular cell adhesion molecule 1 (VCAM1) Biomarker Activity (AID 2284231)
# measurement conditions: primary human lung fibroblasts
Active and inactive are the calls of the source. The calls were made as follows: active = hit-call score of the fitted dose curve at least 0.9, where 1 is the maximum; inactive = score below 0.9.
observation type: outcome

[[record]]
molecule = "CC(CCl)OP(=O)(OC(C)CCl)OC(C)CCl (stereo unspecified)"
result = "inactive"

[[record]]
molecule = "CCCCCCCCC(F)(F)C(F)(F)C(F)(F)C(F)(F)C(F)(F)C(F)(F)F"
result = "inactive"

[[record]]
molecule = "C=C(C)C(=O)OCC(F)(F)C(F)(F)C(F)(F)C(F)(F)C(F)(F)C(F)(F)C(F)(F)F"
result = "inactive"

[[record]]
molecule = "O=C(CC(=O)C(F)(F)C(F)(F)F)C(F)(F)F"
result = "inactive"

[[record]]
molecule = "CC(C)(C)C(=O)CC(=O)C(F)(F)C(F)(F)C(F)(F)F"
result = "inactive"

[[record]]
molecule = "Oc1ccc(Nc2ccccc2)cc1"
result = "inactive"

[[record]]
molecule = "CCN(CC)c1ccc2c(C)cc(=O)oc2c1"
result = "inactive"

[[record]]
molecule = "OCC(F)(F)C(F)(F)C(F)(F)F"
result = "inactive"

[[record]]
molecule = "C#C[C@]1(O)CC[C@H]2[C@@H]3CCc4cc(OC)ccc4[C@H]3CC[C@@]21C"
result = "inactive"

[[record]]
molecule = "O=P(O)(O)OCCC(F)(F)C(F)(F)C(F)(F)C(F)(F)C(F)(F)C(F)(F)F"
result = "inactive"

[[record]]
molecule = "O=C(O)C(F)(F)C(F)(F)C(F)(F)C(F)(F)F"
result = "inactive"


----------
# assay summary: Tanguay_ZF_120hpf_ANY: Oregon State University Tanguay Lab 120 Hour Post-fertilization zebrafish Assay for Any Mortality and Malformation (AID 2284404)
Activity calls are given as the source filed them. How the source made its calls: active means hit-call score of the fitted dose curve at least 0.9, where 1 is the maximum; inactive means score below 0.9.
Labels: y (active), n (inactive)

[[record]]
compound = "C=CC(=O)OCC(F)(F)C(F)(F)C(F)(F)C(F)(F)COC(=O)C=C"
discrete_label = "y"

[[record]]
compound = "COC(=O)CCC(F)(F)C(F)(F)C(F)(F)C(F)(F)F"
discrete_label = "n"

[[record]]
compound = "O=P(O)(O)OCCC(F)(F)C(F)(F)C(F)(F)C(F)(F)C(F)(F)C(F)(F)F"
discrete_label = "y"

[[record]]
compound = "FC(F)(F)C(F)(F)C(F)(F)C(F)(F)C(F)(F)C(F)(F)CC1CO1 (stereo not given)"
discrete_label = "n"

[[record]]
compound = "FC(F)(F)C(F)(F)C(F)(F)CI"
discrete_label = "n"

[[record]]
compound = "C=C(C)C(=O)OCC(F)(F)C(F)(F)C(F)(F)F"
discrete_label = "n"

[[record]]
compound = "FC(F)(F)C(F)(F)C(F)(F)C(F)(F)C(F)(F)C(F)(F)C(F)(F)C(F)(F)F"
discrete_label = "n"

[[record]]
compound = "O=C(O)C(F)(OC(F)(F)C(F)(OC(F)(F)C(F)(OC(F)(F)C(F)(F)C(F)(F)F)C(F)(F)F)C(F)(F)F)C(F)(F)F (stereo not given)"
discrete_label = "n"

[[record]]
compound = "O=C(O)C(F)(F)C(F)(F)C(F)(F)C(F)(F)C(F)(F)C(F)(F)C(F)(F)C(F)(F)Cl"
discrete_label = "y"

[[record]]
compound = "OCCCC(F)(F)C(F)(F)C(F)(F)C(F)(F)C(F)(F)C(F)(F)C(F)(F)F"
discrete_label = "n"


----------
# system tested: human Phosphodiesterase 10 (PDE10), PDE10A (gene 10846) (UniProt Q9Y233)
# Sequence (Q9Y233 whole entry, looked up): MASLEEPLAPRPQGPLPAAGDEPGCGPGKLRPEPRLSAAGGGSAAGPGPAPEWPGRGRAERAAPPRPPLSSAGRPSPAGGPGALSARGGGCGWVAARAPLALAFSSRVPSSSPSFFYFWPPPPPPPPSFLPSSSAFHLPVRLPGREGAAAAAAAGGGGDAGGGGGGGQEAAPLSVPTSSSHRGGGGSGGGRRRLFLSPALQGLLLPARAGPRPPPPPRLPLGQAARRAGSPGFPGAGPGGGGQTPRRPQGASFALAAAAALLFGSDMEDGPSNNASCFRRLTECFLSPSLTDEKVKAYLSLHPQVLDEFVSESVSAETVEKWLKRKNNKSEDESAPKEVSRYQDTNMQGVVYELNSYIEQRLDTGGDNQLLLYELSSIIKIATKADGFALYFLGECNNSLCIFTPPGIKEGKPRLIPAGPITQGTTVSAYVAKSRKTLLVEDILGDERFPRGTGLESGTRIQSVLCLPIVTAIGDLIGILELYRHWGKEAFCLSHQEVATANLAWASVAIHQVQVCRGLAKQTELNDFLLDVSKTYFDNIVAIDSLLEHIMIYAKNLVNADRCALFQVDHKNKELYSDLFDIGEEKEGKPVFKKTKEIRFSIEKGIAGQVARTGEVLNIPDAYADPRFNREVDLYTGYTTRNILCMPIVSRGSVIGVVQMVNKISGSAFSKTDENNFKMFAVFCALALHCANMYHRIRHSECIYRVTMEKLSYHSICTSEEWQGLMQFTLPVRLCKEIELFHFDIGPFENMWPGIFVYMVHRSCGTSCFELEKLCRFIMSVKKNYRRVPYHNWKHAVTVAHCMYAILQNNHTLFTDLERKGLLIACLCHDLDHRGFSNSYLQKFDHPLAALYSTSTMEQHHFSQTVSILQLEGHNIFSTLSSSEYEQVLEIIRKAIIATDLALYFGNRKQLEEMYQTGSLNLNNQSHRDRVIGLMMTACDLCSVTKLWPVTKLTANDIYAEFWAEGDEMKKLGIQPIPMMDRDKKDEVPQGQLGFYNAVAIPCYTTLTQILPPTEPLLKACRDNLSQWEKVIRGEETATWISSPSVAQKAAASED
# assay summary: NVS_ENZ_hPDE10: NovaScreen (NVS) Enzymatic Assay for human Phosphodiesterase 10 (PDE10) (AID 2283195)
Records with an inconclusive call do not appear. The source made the active and inactive calls. The calls were made as follows: active = hit-call score of the fitted dose curve at least 0.9, where 1 is the maximum; inconclusive = response in the unintended direction; inactive = score below 0.9.
observation type: outcome

[[record]]
molecule = "CC(=O)Nc1ccc(N=Nc2cc(C)ccc2O)cc1"
result = "inactive"

[[record]]
molecule = "CCN(CC)c1ccc2c(C)cc(=O)oc2c1"
result = "inactive"

[[record]]
molecule = "CC(C)=CCCC(C)CCOC(=O)C(C)C (centres undefined)"
result = "inactive"

[[record]]
molecule = "CO[Si](OC)(c1ccccc1)c1ccccc1"
result = "inactive"


----------
# Read-out: Monokine induced gamma interferon (MIG), CXCL9 (gene 4283)
# assay summary: BSK_SAg_MIG: BioMAP Diversity Plus: SAg Assay for Monokine induced gamma interferon (MIG) Biomarker Activity (AID 2283092)
# measurement conditions: primary human HUVEC with PBMC; actives raise or lower the signal
Activity calls are given as the source filed them. Rule for the calls: active = hit-call score of the fitted dose curve at least 0.9, where 1 is the maximum; inactive = score below 0.9.
Labels: active, inactive

[[record]]
molecule = "O=C(Cl)C(F)(F)C(F)(F)C(F)(F)C(F)(F)C(F)(F)C(F)(F)C(F)(F)C(F)(F)F"
discrete_label = "inactive"

[[record]]
molecule = "FC(F)(F)C(F)(F)C(F)(F)C(F)(F)C(F)(F)CCI"
discrete_label = "inactive"

[[record]]
molecule = "O[Si](c1ccccc1)(c1ccccc1)c1ccccc1"
discrete_label = "active"

[[record]]
molecule = "C=CC/C=C/C/C=C/C/C=C/C"
discrete_label = "inactive"

[[record]]
molecule = "O=C(O)C(F)(F)C(F)(F)C(F)(F)C(F)(F)C(F)(F)C(F)(F)C(F)(F)C(F)(F)C(F)(F)C(F)F"
discrete_label = "inactive"

[[record]]
molecule = "CCN(CC)c1ccc2c(C)cc(=O)oc2c1"
discrete_label = "inactive"

[[record]]
molecule = "COC(=O)CCC(F)(F)C(F)(F)C(F)(F)C(F)(F)F"
discrete_label = "inactive"

[[record]]
molecule = "C=C(C)C(=O)OCC(F)(F)C(F)(F)C(F)(F)F"
discrete_label = "inactive"

[[record]]
molecule = "O=P(O)(O)OCCC(F)(F)C(F)(F)C(F)(F)C(F)(F)C(F)(F)C(F)(F)F"
discrete_label = "inactive"

[[record]]
molecule = "FC(F)(F)C(F)(F)C(F)(F)C(F)(F)C(F)(F)C(F)(F)C(F)(F)C(F)(F)CCS"
discrete_label = "inactive"

[[record]]
molecule = "CCCCC(CC)COP(=O)(O)OCC(CC)CCCC (stereo unspecified)"
discrete_label = "inactive"

